The following compounds are listed with their measured composite z-score values.
Target: Albumin (Bos taurus) (UniProt P02769)
Sequence (P02769 whole entry, looked up): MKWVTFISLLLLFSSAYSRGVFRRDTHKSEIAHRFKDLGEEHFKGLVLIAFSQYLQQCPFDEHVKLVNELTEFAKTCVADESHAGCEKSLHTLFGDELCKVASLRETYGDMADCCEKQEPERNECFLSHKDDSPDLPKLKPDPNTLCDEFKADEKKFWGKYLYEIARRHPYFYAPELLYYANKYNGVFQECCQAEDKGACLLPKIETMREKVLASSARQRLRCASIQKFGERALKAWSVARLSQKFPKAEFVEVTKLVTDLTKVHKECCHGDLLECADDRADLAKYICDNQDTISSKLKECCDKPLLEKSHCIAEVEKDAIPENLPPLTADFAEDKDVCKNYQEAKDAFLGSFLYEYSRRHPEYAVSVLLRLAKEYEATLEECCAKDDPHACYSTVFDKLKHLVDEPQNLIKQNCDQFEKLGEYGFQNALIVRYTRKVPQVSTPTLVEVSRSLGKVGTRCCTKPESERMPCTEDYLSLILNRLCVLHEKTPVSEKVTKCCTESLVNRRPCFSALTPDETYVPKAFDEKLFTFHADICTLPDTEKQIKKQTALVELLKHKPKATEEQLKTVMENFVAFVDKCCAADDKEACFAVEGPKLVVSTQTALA
Test: bovine serum albumin binders on microarray, profiling panel, artefact control for SMM control protein annotation, biochemical, small-molecule microarray, Alexa647 label, 635/667 nm fluorescence (AID 1118);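 further: score merges 667 nm emission intensity and signal-to-noise per printed compound spot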
Conditions: BSA-A647 binding, fluorescence 635 nm, higher = more signal
Respond using a number only.

Consider the following illustrative entries.
Structure: NC(=O)[C@@]1(CCS(=O)(=O)c2ccccc2)COC(c2ccc(OCCCO)cc2)=N1
Test value: 0.336
--
Structure: O=C1O[C@@H](c2ccccc2)[C@@H](c2ccccc2)N2[C@@H](c3ccc(O)cc3)[C@]3(C(=O)Nc4ccc(C#CC5=CCCCC5)cc43)[C@@H](C(=O)N3CCCCCCC3)[C@H]12
Test value: 0.508

Let us move to another entry and its composite z-score.
Problem: Value lookup for composite z-score; key = CCOC(=O)C[C@H]1[C@H](OC(=O)c2ccc(-c3ccccc3)cc2)[C@@H](NC(=O)CC(C)C)c2cc(OCCCO)ccc2N1C(=O)Cc1ccc(OC)cc1
Result: 0.593
